- Test system: DLD1 Human Colon Carcinoma
- Protocol details: Human tumor xenograft test, DLD1
- Assay type: in vivo
- Test parameters: DLD1, 20 mg/kg IV, days 1, 5, 9, 13

Smiles: CNCCCOc1cc(F)c(-c2c(Cl)nc3ncnn3c2N[C@@H](C)C(F)(F)F)c(F)c1.Cl
T/C on day 0: 1.00
//
Smiles: C[C@H](Nc1c(-c2c(F)cc(OCCCN(C)C)cc2F)c(Cl)nc2ncnn12)C(F)(F)F.Cl
T/C on day 0: 1.00
//
Smiles: CN(C)CCCOc1cc(F)c(-c2c(Cl)nc3ncnn3c2NCC(F)(F)F)c(F)c1.Cl
T/C on day 0: 1.00
//
Smiles: CNCCCOc1cc(F)c(-c2c(Cl)nc3ncnn3c2NCC(F)(F)F)c(F)c1.Cl
T/C on day 0: 1.00
